- MEASUREMENT_TARGET: T1, human ROR2 expressed on the cell surface (human, UniProt Q01974 34-943)
- T1 construct: Endogenous ROR2 of human tumour cell lines; also called cell surface ROR2; ROR2 on tumour cell lines
- T1 sequence (Q01974 34-943 limits assumed): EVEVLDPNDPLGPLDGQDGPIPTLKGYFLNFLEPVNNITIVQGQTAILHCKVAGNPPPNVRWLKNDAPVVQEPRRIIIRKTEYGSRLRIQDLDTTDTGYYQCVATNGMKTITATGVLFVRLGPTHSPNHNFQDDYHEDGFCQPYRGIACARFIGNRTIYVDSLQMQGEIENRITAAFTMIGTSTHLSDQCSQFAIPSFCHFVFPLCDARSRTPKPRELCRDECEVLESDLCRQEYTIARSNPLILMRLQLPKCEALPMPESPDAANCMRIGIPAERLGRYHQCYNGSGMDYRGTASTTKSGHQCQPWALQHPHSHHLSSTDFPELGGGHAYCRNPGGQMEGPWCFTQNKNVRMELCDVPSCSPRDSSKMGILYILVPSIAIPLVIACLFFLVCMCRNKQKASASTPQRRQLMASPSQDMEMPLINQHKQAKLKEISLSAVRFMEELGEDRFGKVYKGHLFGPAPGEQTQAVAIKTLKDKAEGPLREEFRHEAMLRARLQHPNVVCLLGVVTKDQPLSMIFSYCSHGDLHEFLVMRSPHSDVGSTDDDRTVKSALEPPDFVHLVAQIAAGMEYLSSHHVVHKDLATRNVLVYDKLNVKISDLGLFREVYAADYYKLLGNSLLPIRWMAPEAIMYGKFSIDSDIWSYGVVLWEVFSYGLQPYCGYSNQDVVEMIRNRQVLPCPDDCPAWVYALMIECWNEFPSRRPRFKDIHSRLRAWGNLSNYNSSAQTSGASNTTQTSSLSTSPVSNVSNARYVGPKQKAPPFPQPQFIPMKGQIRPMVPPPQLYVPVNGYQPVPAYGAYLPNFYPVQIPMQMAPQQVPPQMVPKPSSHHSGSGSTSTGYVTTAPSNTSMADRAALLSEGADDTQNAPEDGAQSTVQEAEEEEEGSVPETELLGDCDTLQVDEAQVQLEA
- EXPERIMENT: flow cytometry, RG187 cells (osteosarcoma)
- Design: unit not given here
MEASUREMENT_NAME: binding intensity

## Input I am curious: what binding intensity value has been reported for ROR2-240 full length human IgG1 antibody (antibody, V domains shown, also called clone #240 IgG1) VH: QITLKESGPELVKPTQTLTLTCTFSGFSLSTSGMSVSWIRQPPGKALEWLARIDWDDDKYYSTSLKTRLTISKDTSKNQVVLTMTNTDPVDTATYYCARGFYLAYGSYDSWGQGTLVTVSS VL: QSALTQPASVSGSPGQSITISCTGTSGDVGGYNYVSWYQHHPGKAPKLIIYDVNKRPSGFSDRFSGSKSGNTASLTISGLQAEDEADYYCSSYTSTSTVFGGGTKLTVLG ?
## Output 4

## Input I am curious: what binding intensity value has been reported for ROR2-23 full length human IgG1 antibody (antibody, V domains shown, The light chain of clone 023 is labelled kappa; also called clone #23; clone #023 IgG1) VH: EVQLVQSGAEVKKPGESLKISCQGSGYRFSKYWIGWVRQMPGKGLEWMGIIYPGDSDTRYSPSFQGQVTISADKSISTAYLQWSSLKASDTAMYYCARSFSSFIYDYWGQGTLVTVSS VL: ETTLTQSPGTLSVSPGERATLSCRASQSVSSNLAWYQQKRGQAPRLLIYGASTRATGIPVRFSGSGSGTEFTLTISRLEPEDFAVYYCQQYGRSPLTFGGGTKVDIKR ?
## Output 44

## Input I am curious: what binding intensity value has been reported for ROR2-90 full length human IgG1 antibody (antibody, V domains shown, also called clone #90; antibody #90) VH: EVQLVESGPGLVKPSQTLSLTCTVSGGSISSGGYYWSWIRQHPGKGLEWIGYIYYSGSTYYNPSLKSRVTISVDTSKNQFSLKLSSVTAADTAMYYCARGGLYWTYSQDVWGQGTLVTVSS VL: QPVLTQPPSASGTPGQRVTISCSGSSSNIGSDYVSWYQQLPGTAPKLLIYRNDQRPSGVPDRFSGSKSGTSASLAISGLRSEDEADYYCVAWDDSLSGYVFGSGTKVTVLG ?
## Output 79

## Input I am curious: what binding intensity value has been reported for ROR2-27 full length human IgG1 antibody (antibody, V domains shown, also called clone #27; clone #027 IgG1) VH: QVQLVESGAEVKKPGESLKISCKASGYSFSNYWIGWVRQMPGKGLEWMGIIYPDDSDTRYSPSFQGQVTISADKSISTAYLQWYSLKVADTAKYYCVRPRGAFDIWGQGTTVTVSS VL: QSVLTQPPSVSGAPGQRVTISCTGSSSNIGAGHAVHWYQQLPGTAPKLLIYDNANRPSGVPDRFSGSQSGTSASLAITGLQTGDEADYYCGTWDDSPSAYVFGTGTKVTVLG ?
## Output 19

## Input I am curious: what binding intensity value has been reported for ROR2-241 full length human IgG1 antibody (antibody, V domains shown) VH: EVQLVQSGAEVKKPGASVKVSCKASGYTFTNYYIHWVRQAPGQGLEWMGIINPTSGRTRYAQRFQGRVTMTRDTSTNTVYMDLSSLRSEDTAMYYCARSGYYWGVNGDQWGQGTLVTVSS VL: SYELTQPLSVSVALGQTARITCGGNNIGSKNVHWYQQKPGQAPVLVIYRDSNRPSGIPERFSGSNSGNTATLTISRAQAGDEADYYCQVWDSSIVVFGGGTKLTVLG ?
## Output 29

Just for reference, patent US20180127503A1 is where these values come from.
